Molecular target: α1 glycine (Homo sapiens)
Sequence (P23415 29-457): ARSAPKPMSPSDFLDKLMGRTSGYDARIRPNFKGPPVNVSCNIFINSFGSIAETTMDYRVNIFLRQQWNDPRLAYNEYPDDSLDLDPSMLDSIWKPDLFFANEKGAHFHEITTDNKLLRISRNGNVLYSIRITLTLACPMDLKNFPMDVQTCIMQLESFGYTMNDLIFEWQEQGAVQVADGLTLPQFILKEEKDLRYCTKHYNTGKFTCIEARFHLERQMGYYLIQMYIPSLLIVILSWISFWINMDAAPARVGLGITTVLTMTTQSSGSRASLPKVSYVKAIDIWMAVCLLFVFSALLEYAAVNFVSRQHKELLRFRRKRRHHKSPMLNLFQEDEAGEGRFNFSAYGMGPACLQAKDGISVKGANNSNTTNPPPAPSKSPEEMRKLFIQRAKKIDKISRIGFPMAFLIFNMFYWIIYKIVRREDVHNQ
Experiment: Glycine receptor activity, two-electrode voltage-clamp in Xenopus laevis oocytes
Settings: TEVC, holding potential −70 mV
test-readout: EC50 (nM)

entry-smiles	value-reported
CC(C)(C)c1cc(C(=O)N2CCOCC2)cc(C(C)(C)C)c1O	0.46
